Tested on: MS2 coat protein
method description: apparent KD of MS2 coat protein; designed switch direction (-1 OFF switch, 1 ON switch): 1; higher = weaker reporter binding
details: input ligand: microRNA oligo, concentration not stated
outcome measure: apparent KD of MS2 coat protein
Record the result as a number with its unit.

Some sequences with recorded apparent KD of MS2 coat protein:
- seq: "GGUAUCGGCACAGGAUAUGCUAUCCUUUGGGUAGCAGAAGGGUGAACAUGAGGAUCACCCAUGUAGGUGCCAGGGCGUGAGCCC [JL SSNG1 1.80] (Eterna round: R96, puzzle: Same State NG 1)"
  apparent KD of MS2 coat protein: "56.4 nM"
- seq: "AAAAUCUACGAAAGUAGAACAAGCUUAAGACAUGAGGAUCACCCAUGUCAUGUCUUAAAACAUGAGGAAACUCAUGA [hsa-mir-208a sensor: 17] (Eterna round: R96, puzzle: Sensor for hsa-mir-208a)"
  apparent KD of MS2 coat protein: "182 nM"
- seq: "GAGCCAGUCCGAGGAUAUUCAUAUUAACACAUGAGGAUCACCCAUGUAGGCUCAGAAGAGCCUUGGGAGAAGGCGGACUGGCUC [SS-NG2-LRO14] (Eterna round: R96, puzzle: Same State NG 2)"
  apparent KD of MS2 coat protein: "227 nM"
- seq: "GGUAGGUUACUACCAAUCUACAUGAGGAUCACCCAUGUGUAGGAGGAUAUGGUACCUAUUUGGUACCAGAAGGCCUGAUUAAUU [Fiskers NG3ss - 8] (Eterna round: R96, puzzle: Same State NG 3)"
  apparent KD of MS2 coat protein: "80.4 nM"
- seq: "AUUUUUAAUGCAGGAUAUGAUUAACAUGAGGAUCACCCAUGUGGUGUUGUGAGUAAGGAGAGUGAUCAGAAGGGCAUAUUUUUU [JMF's solution 80] (Eterna round: R96, puzzle: Same State NG 2)"
  apparent KD of MS2 coat protein: "443 nM"

List the reported apparent KD of MS2 coat protein of each sequence below.
1. AUUAUACAUGAGGAUCACCCAUGUAAUUAAUUAAUUAAGAUCUAGGAUAUCAGCUCGAAUAGAGCUGAGAAGGAGAUCACAUGU [SSNG3/20-C1] (Eterna round: R96, puzzle: Same State NG 3)
2. UGAACCUUCACAGGAUAUCAUGCGAAAAUUGCGUGAGAAGGGUGGAUGUGGUGUUCAAAGAUGCACAUGAGGAUCACCCAUGUA [SameState NG1 #48] (Eterna round: R96, puzzle: Same State NG 1)

// result
1: 24.2 nM; 2: 166 nM
